Consider the following compounds and their measured pIC50 readings.
# study-system: Casein kinase 1 delta (CSKN1D) (Homo sapiens, UniProt P48730)
# Sequence (P48730 whole entry): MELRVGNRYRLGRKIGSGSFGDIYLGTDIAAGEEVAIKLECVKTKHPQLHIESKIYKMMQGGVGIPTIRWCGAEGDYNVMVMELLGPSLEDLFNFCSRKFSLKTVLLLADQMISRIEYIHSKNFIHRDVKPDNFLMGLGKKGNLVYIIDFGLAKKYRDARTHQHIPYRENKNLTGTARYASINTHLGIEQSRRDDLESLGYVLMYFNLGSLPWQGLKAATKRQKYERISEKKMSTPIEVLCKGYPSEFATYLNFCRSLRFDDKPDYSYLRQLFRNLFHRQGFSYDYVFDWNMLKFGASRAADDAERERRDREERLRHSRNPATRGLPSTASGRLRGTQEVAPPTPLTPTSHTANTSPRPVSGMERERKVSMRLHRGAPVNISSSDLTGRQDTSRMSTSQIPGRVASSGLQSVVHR
# experiment-notes: Casein kinase assay, CK1 delta
# condition-notes: recombinant CSKN1D 5 nM, ATP 10 μM
pIC50: −log10 of the molar value.
measurement-name: pIC50

- substance-smiles: "Nc1ncc(Br)nc1C(=O)Nc1nc2cc3c(cc2[nH]1)OC(F)(F)O3"
  measurement: "6.00 to 6.70"
- substance-smiles: "COc1ccc2cc([C@H](C)C(=O)Nc3nc4cc5c(cc4[nH]3)OC(F)(F)O5)ccc2c1"
  measurement: "> 6.70"
- substance-smiles: "CS(=O)(=O)Nc1cccc(C(=O)Nc2nc3cc4c(cc3[nH]2)OC(F)(F)O4)c1"
  measurement: "> 6.70"
- substance-smiles: "O=C(Nc1nc2cc3c(cc2[nH]1)OC(F)(F)O3)c1ccc(NCc2ccccc2)cc1"
  measurement: "> 6.70"
- substance-smiles: "CCN(CC)c1ccc(C(=O)Nc2nc3cc4c(cc3[nH]2)OC(F)(F)O4)cc1"
  measurement: "6.00 to 6.70"
- substance-smiles: "O=C(Nc1nc2cc3c(cc2[nH]1)OC(F)(F)O3)c1csc2ccccc12"
  measurement: "> 6.70"
- substance-smiles: "O=C(Nc1nc2cc3c(cc2[nH]1)OC(F)(F)O3)c1csc(-c2ccc3c(c2)CCO3)n1"
  measurement: "> 6.70"
- substance-smiles: "COc1ccc(C(=O)Nc2nc(C(=O)Nc3nc4cc5c(cc4[nH]3)OC(F)(F)O5)ns2)cc1"
  measurement: "< 6.00"
- substance-smiles: "O=C(Nc1nc2cc3c(cc2[nH]1)OC(F)(F)O3)c1csc(C2CCN(c3ncnc4ccsc34)CC2)n1"
  measurement: "6.00 to 6.70"
- substance-smiles: "O=C(Nc1nc2cc3c(cc2[nH]1)OC(F)(F)O3)c1ccccc1OC(F)(F)F"
  measurement: "6.00 to 6.70"
- substance-smiles: "O=C(Nc1nc2cc3c(cc2[nH]1)OC(F)(F)O3)c1cccnc1"
  measurement: "> 6.70"

* * *

# study-system: Casein kinase 1 delta (CSKN1D) (Homo sapiens)
# experiment-notes: Casein kinase assay, CK1 delta
# condition-notes: recombinant CSKN1D 5 nM, ATP 10 μM

- compound: "O=C(/C=C/c1ccccc1)Nc1nc(C(=O)Nc2nc3cc4c(cc3[nH]2)OC(F)(F)O4)co1 [Compound 9]"
  IC50: "> 1000 nM"
- compound: "O=C(Nc1nc(C(=O)Nc2nc3cc4c(cc3[nH]2)OC(F)(F)O4)ns1)c1ccc(Cl)cc1 [Compound 91]"
  IC50: "< 200 nM"
- compound: "O=C(Nc1nc2cc3c(cc2[nH]1)OC(F)(F)O3)c1ccc(Cl)c(Cl)c1 [Compound 109]"
  IC50: "200 to 1000 nM"
- compound: "O=C(Nc1nc2cc3c(cc2[nH]1)OC(F)(F)O3)c1ccnc(N2CCSCC2)c1 [Compound 14B]"
  IC50: "< 200 nM"
- compound: "O=C(Nc1nc2cc3c(cc2[nH]1)OC(F)(F)O3)c1coc(-c2cccs2)n1 [Compound 136]"
  IC50: "< 200 nM"
- compound: "O=C(Nc1nc2cc3c(cc2[nH]1)OC(F)(F)O3)c1cncc(N2CCOCC2)c1 [Compound 25B]"
  IC50: "< 200 nM"
- compound: "O=C(Nc1nc2cc3c(cc2[nH]1)OC(F)(F)O3)c1cc[nH]n1 [Compound 73]"
  IC50: "> 1000 nM"
- compound: "O=C(Nc1nc2cc3c(cc2[nH]1)OC(F)(F)O3)c1ccc([N+](=O)[O-])s1 [Compound 63]"
  IC50: "200 to 1000 nM"
- compound: "O=C(Nc1nc2cc3c(cc2[nH]1)OC(F)(F)O3)c1cnc(NC(=O)c2ccccc2OC(F)(F)F)o1 [Compound 48]"
  IC50: "< 200 nM"
- compound: "O=C(Nc1nc(C(=O)Nc2nc3cc4c(cc3[nH]2)OC(F)(F)O4)cs1)Nc1ccccc1OC(F)(F)F [Compound 26]"
  IC50: "< 200 nM"
- compound: "NS(=O)(=O)c1ccc(C(=O)Nc2nc3cc4c(cc3[nH]2)OC(F)(F)O4)cn1 [Compound 112]"
  IC50: "< 200 nM"
- compound: "CN(C)c1ccc(C(=O)Nc2nc3cc4c(cc3[nH]2)OC(F)(F)O4)cc1 [Compound 75]"
  IC50: "< 200 nM"
- compound: "O=C(Nc1nc2cc3c(cc2[nH]1)OC(F)(F)O3)c1csc(Nc2ccc(OC(F)(F)F)cc2)n1 [Compound 23]"
  IC50: "> 1000 nM"
- compound: "O=C(Nc1nc2cc3c(cc2[nH]1)OC(F)(F)O3)c1csc(-c2ccoc2)n1 [Compound 16B]"
  IC50: "< 200 nM"

Entry source: patent US20170240556A1
